# test.description: budding yeast growth modifiers under rapamycin – strain BY4716, OD600, 96 h, primary screen (AID 1091); further: test concentration not given here
# experimental.context: S. cerevisiae BY4716 + rapamycin, called active from +8 up or from −8 down
The source made the active and inactive calls.
Your reply should match one of these outcome classes. active, inactive

INSERT INTO assay_data (molecule, class) VALUES
  ('COc1ccc([Si](C)(C)[C@@H]2[C@@H](CCO)O[C@]3(C(=O)N(Cc4cccc(N5CCOC5=O)c4)c4ccccc43)[C@H]2C)cc1', 'active');

stdin: Which outcome was assigned to CN(C)CCCCNC(=O)[C@@H]1C[C@@H]2C(=O)N[C@@H](CCCCN)C(=O)N2[C@@H]1c1ccc(O)cc1 in this test?
stdout: inactive

stdin: Please state the recorded outcome for this molecule: COCCCNC(=O)[C@@H]1c2ccccc2C(=O)N(Cc2ccccc2)[C@H]1c1ccc(CO)cc1
stdout: inactive

stdin: Could you kindly confirm the outcome this assay logged for COc1ccccc1CN1C(=O)c2ccccc2[C@@]2(Cc3ccccc3N(CCCN(C)C)C2=O)[C@@H]1c1ccc(CO)cc1 ?
stdout: inactive

stdin: Per the assay record, what outcome was assigned to COc1cc2c(cc1O)C=[N+](Cc1cc3c(cc1Br)OCO3)CC2 ?
stdout: inactive

stdin: Status in this test for C=CCOC(=O)[C@H]1[C@@H]2C(=O)O[C@@H](c3ccccc3)[C@@H](c3ccccc3)N2[C@@H](c2ccc(OCCOC(=O)[C@H]3C[C@H]4C(=O)N[C@@H](CCCCN(C)C)C(=O)N4[C@H]3c3cccc(OCCO)c3)cc2)[C@]12C(=O)Nc1ccc(I)cc12 ?
stdout: inactive

====

# test.description: probe aInhba binding on compound microarray – biochemical, small-molecule microarray, 635/667 nm fluorescence, primary screen (AID 1148);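 further: score merges 667nm spot fluorescence with signal-to-noise for antibody binding to printed compounds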
# experimental.context: higher = more signal
Form field: composite z-score (one value per entry).
Just the number, please, no unit after it.

INSERT INTO results (compound, value_type, experimental_result) VALUES
  ('C=CC[C@@]1(C(=O)N2CCCCC2)N=C(c2ccc(OCCCO)cc2)O[C@@H]1c1ccccc1N=[N+]=[N-]', 'composite z-score', 0.0391),
  ('CCOC(=O)C[C@H]1[C@H](OC(=O)c2ccc(-c3ccccc3)cc2)[C@@H](NC(=O)c2ccccc2)c2cc(OCCCO)ccc2N1C(=O)c1ccc2ccccc2n1', 'composite z-score', 0.368),
  ('COCCOC(=O)N1C(=O)[C@@]2(c3ccccc31)[C@H](C(=O)N1CCCCCCC1)[C@H]1C(=O)O[C@H](c3ccccc3)[C@H](c3ccccc3)N1[C@@H]2c1ccc(OCCO)cc1', 'composite z-score', 2.4),
  ('COCCOC(=O)N1C(=O)[C@@]2(c3ccccc31)[C@H](C(=O)N1CCc3cc(OC)c(OC)cc3C1)[C@H]1C(=O)O[C@H](c3ccccc3)[C@H](c3ccccc3)N1[C@@H]2c1ccc(O)cc1', 'composite z-score', -0.0889),
  ('CCCCN1CC=CC23O[C@@H]4/C=C\CCCOC(=O)C4[C@H]2C(=O)N(CCCO)[C@@H]3C1=O (stereo partly drawn)', 'composite z-score', -0.105);

stdin: // fetch composite z-score given entry COc1cc2c(cc1OC)CN(C(=O)[C@H]1[C@@H]3C(=O)O[C@@H](c4ccccc4)[C@@H](c4ccccc4)N3[C@@H](c3ccccc3OCCO)[C@]13C(=O)Nc1ccc(C#CCCO)cc13)CC2
stdout: -0.0567

stdin: Recall and state the measured composite z-score for NCCCCCNC(=O)[C@H]1C[C@H]2C(=O)N[C@@H](Cc3ccccc3)C(=O)N2[C@H]1c1cccc(OCCO)c1 .
stdout: 0.205

stdin: State its composite z-score for this compound: COc1ccc(NN2C(C(O)c3ccc(N(C)C)cc3)C=CC3C(=O)N(C4CCCCC4)C(=O)C32)cc1 (stereo not drawn)
stdout: 0.346

stdin: Retrieve composite z-score measured for COC(=O)C(CC#Cc1ccc2c(c1)[C@]1(C(=O)N2)[C@H](c2ccc(O)cc2)N2[C@H](c3ccccc3)[C@H](c3ccccc3)OC(=O)[C@H]2[C@@H]1C(=O)N1CCN(c2ncccn2)CC1)C(=O)OC and print it.
stdout: 0.313

stdin: State, in one line, measured composite z-score of O=C1OCC=C[C@H]2OC34C=CCN(Cn5nnc6ccccc65)C(=O)[C@H]3N(CCCCCO)C(=O)[C@@H]4[C@@H]12 (stereo partly drawn)
stdout: -0.348

====

# measured.on: Neurogenic locus notch homolog protein 3 (Homo sapiens)
# test.description: small molecules binding NOTCH3 protein – biochemical, 635/667 nm fluorescence, primary screen (AID 1096)
# experimental.context: small-molecule microarray, 635 nm fluorescence, higher = more signal
Binary classification by composite z-score, with 0.8 as an inclusive lower bound for met; all other cases are not met.

INSERT INTO measurements (compound_structure_string, measured_on, class) VALUES
  ('COCCOC(=O)N1C(=O)[C@@]2(c3cc(C#CC4(O)CCCCCC4)ccc31)[C@H](C(=O)Nc1nc3ccccc3s1)[C@H]1C(=O)O[C@H](c3ccccc3)[C@H](c3ccccc3)N1[C@@H]2c1ccc(OCCO)cc1', 'Neurogenic locus notch homolog protein 3 (Homo sapiens)', 'met'),
  ('COC(=O)[C@@]1(Cc2ccccc2)[C@H]2c3cc(C(=O)N4CCCC4)n(Cc4c(CO)[nH]cc(C)c4=O)c3C[C@H]2CN1C(=O)c1ccccc1', 'Neurogenic locus notch homolog protein 3 (Homo sapiens)', 'not met'),
  ('NC(=O)NCC#Cc1ccc2c(c1)[C@]1(C(=O)N2)[C@H](C(=O)O)[C@H]2C(=O)O[C@H](c3ccccc3)[C@H](c3ccccc3)N2[C@@H]1c1ccc(O)cc1', 'Neurogenic locus notch homolog protein 3 (Homo sapiens)', 'not met'),
  ('CCOC(=O)C1=C[C@@H](C(C)C)N(S(=O)(=O)c2ccc(C)cc2)[C@H]1c1ccccc1F', 'Neurogenic locus notch homolog protein 3 (Homo sapiens)', 'met');

stdin: Could you please find out whether CO[C@H]1O[C@H](CO)[C@@H](OC(=O)Nc2ccccc2-c2ccccc2)[C@H](OC(=O)Nc2ccccc2-c2ccccc2)[C@@H]1OC(=O)Nc1ccccc1-c1ccccc1 has composite z-score that meets 0.8 or exceeds it?
stdout: met

stdin: In plain terms: is recorded composite z-score at least 0.8 for NCCCCCCNC(=O)[C@H]1C[C@H]2C(=O)N[C@@H](Cc3ccccc3)C(=O)N2[C@H]1c1cccc(OCCO)c1 ?
stdout: not met

stdin: Check the entry COC(=O)c1c(CC[C@@H](CO)NC(=O)N[C@@H](Cc2ccccc2)Cn2cc(-c3ccccn3)nn2)oc(C(=O)N2CCOCC2)c1C(=O)OC : does composite z-score equal or exceed 0.8?
stdout: not met

stdin: Hi team, for CCCC(=O)N(CCc1c[nH]c2ccccc12)[C@@H]1CC(C(=O)NCCO)=C[C@H](Oc2c(I)cc(CO)cc2OC)[C@H]1O , is the recorded composite z-score at or above 0.8?
stdout: not met

stdin: API: above_or_equal(metric=composite z-score, cutoff=0.8) for item COc1ccc([Si](C)(C)[C@H]2[C@H](CC(=O)N3CCC[C@H]3CO)O[C@@]3(C(=O)N(Cc4cccc(N5CCOC5=O)c4)c4ccccc43)[C@@H]2C)cc1
stdout: met

====

Recorded z-score values for a group of molecules are listed next.
# test.description: resazurin metabolic signal in HepG2 cells – cell-based, resazurin fluorescence, 24 h, PK04 Diversity Set, profiling panel (AID 1172); further: test concentration not given here
# experimental.context: HepG2 viability, higher = more signal

Look over these answered cases.
INSERT INTO measurements (molecule, value_type, experimental_result) VALUES
  ('CCCC[C@@H]1C[C@H]1[C@@H](NC(=O)c1cccnc1)c1ccc(Cl)cc1', 'z-score', 0.562),
  ('C=C(C)[C@@H]1CC=C(C(O)C2C=CC3C(=O)NC(=O)C3N2Nc2ccc(Cl)cc2Cl)CC1 (stereo partly specified)', 'z-score', -3.18),
  ('CCCCCCc1nc(-c2ccc(-c3ccc(Cl)c(Cl)c3)o2)cc2c1[Si](C(C)C)(C(C)C)O[C@H]2c1ccccc1', 'z-score', 1.32),
  ('CCCC(=O)N(CCc1c[nH]c2ccccc12)[C@@H]1CC(C(=O)NCCO)=C[C@H](Oc2c(I)cc(CO)cc2OC)[C@H]1O', 'z-score', 0.627),
  ('O=C(NC1CC1)[C@@H]1c2ccccc2C(=O)N(C2Cc3ccccc3C2)[C@H]1c1ccc(CO)cc1', 'z-score', 0.21),
  ('CC[C@@H]1C=C(C(=O)O)[C@H](c2ccc(C)cc2)N1S(=O)(=O)c1ccc(C)cc1', 'z-score', 0.675);

stdin: Please supply the value of reported z-score for the item COc1ccccc1CN1C(=O)c2ccccc2[C@@]2(Cc3ccccc3N(CCCN(C)C)C2=O)[C@@H]1c1ccc(CO)cc1
stdout: -0.434

stdin: Name the recorded z-score of the molecule listed here: NC(=O)[C@@]1(Cc2ccccc2)N=C(c2ccc(OCCCO)cc2)O[C@H]1c1ccccc1
stdout: -0.815

stdin: Give the value of z-score reported for the following: C[C@H]1C2[C@H](Cc3ccccc3)NC(=O)[C@]23C(=O)NCC(=O)N2CCC[C@H]2C(=O)NC/C=C/CCC/C=C/C3[C@@H]2O[C@]12C (stereo partly specified)
stdout: -1.11

stdin: Hello, please tell me recorded z-score for this one: CCCCN1CC=CC23O[C@@H]4C=CCOC(=O)[C@@H]4[C@H]2C(=O)N(CCCCCCO)[C@@H]3C1=O (stereo partly specified)
stdout: -0.556

stdin: Supply recorded z-score for O=C(CS)NCCCCCNC(=O)[C@H]1C[C@H]2C(=O)NCC(=O)N2[C@H]1c1cccc(OCCO)c1 here.
stdout: 0.942

stdin: Identify measured z-score associated with COc1cc2c(cc1O)C(c1cccs1)N(Cc1cccc(OC(F)(F)F)c1)CC2 (stereo unspecified)
stdout: -0.688

stdin: Report measured z-score; entry is O=C(O)C1N=C(c2ccc(OCCCO)cc2)N(c2ccccc2)O1 (stereo unspecified)
stdout: -0.0554

stdin: Output measured z-score for this item: COCCOC(=O)N1C(=O)[C@@]2(c3ccccc31)[C@H](c1ccc(OCCO)cc1)N1[C@H](c3ccccc3)[C@H](c3ccccc3)OC(=O)[C@H]1[C@@H]2C(=O)N1CCc2cc(OC)c(OC)cc2C1
stdout: -0.14

stdin: Note down z-score recorded for COc1ccc([Si](C)(C)[C@@H]2[C@@H](CC(=O)N3CCC[C@H]3CO)O[C@]3(C(=O)N(Cc4cccc(I)c4)c4ccccc43)[C@H]2C)cc1
stdout: -2.43

stdin: Provide measured z-score value, entry: C[N+](C)(C)CCCC[C@@H]1NC(=O)[C@H]2C[C@@H](C(=O)NCCCCCCNC(=O)CS)[C@@H](c3ccc(O)cc3)N2C1=O
stdout: -0.935

stdin: Respond only with z-score recorded for COc1cc2c(cc1O)C=[N+](Cc1cc3c(cc1Br)OCO3)CC2
stdout: -0.532

stdin: Supply reported z-score belonging to this molecule: O=C(O)[C@@]1(CCS(=O)(=O)c2ccccc2)N=C(c2ccc(OCCCO)cc2)O[C@H]1c1ccccc1
stdout: 0.489

stdin: Give z-score for the following molecule: CCCCCCc1nc(-c2ccc(-c3ccc(Cl)c(Cl)c3)o2)c(C)c2c1[Si](C(C)C)(C(C)C)OC2
stdout: -0.865

stdin: Please indicate z-score recorded for CC(=O)NCCCC[C@@H]1NC(=O)[C@H]2C[C@@H](C(=O)NCCCCCNC(=O)CS)[C@@H](c3ccc(O)cc3)N2C1=O
stdout: -0.0321

stdin: Respond only with z-score recorded for O=C1C2C=CC(C(O)c3ccc(-c4ccccc4)s3)N(Nc3ccccc3)C2C(=O)N1c1ccccc1 (stereo unspecified)
stdout: 0.809

stdin: Supply z-score value. Item: C#CCN1[C@H](/C=C/C2CC2)[C@H](Cc2ccccc2)OC(=O)[C@@H]1Cc1ccccc1
stdout: 0.512

stdin: Identify measured z-score associated with O=C(NC1CC1)[C@@H]1c2ccccc2C(=O)N(Cc2cc(F)cc(C(F)(F)F)c2)[C@H]1c1ccc(CO)cc1
stdout: 0.672

stdin: Find the measured z-score of COCCOC(=O)N1C(=O)[C@@]2(c3cc(C#CCCO)ccc31)[C@H](c1ccc(OCCO)cc1)N1[C@H](c3ccccc3)[C@H](c3ccccc3)OC(=O)[C@H]1[C@@H]2C(N)=O and report it.
stdout: -0.569

stdin: Please list z-score recorded for the molecule C=CCC(OC(C)=O)[C@@H]1[C@@H](N(Cc2cc3ccccc3o2)C(=O)Cc2ccc(OC)cc2)c2cc(OCCCO)ccc2N1C(=O)c1ccc2ccccc2c1 (stereo partly specified)
stdout: -1.5

stdin: Supply recorded z-score for [N-]=[N+]=NCc1ccccc1C[C@@]1(C(=O)NCC(O)CO)N=C(c2ccc(OCCCO)cc2)O[C@@H]1c1ccccc1 (stereo partly specified) here.
stdout: -1.07
